target: Glycylpeptide N-tetradecanoyltransferase (Candida albicans (strain SC5314 / ATCC MYA-2876) (Yeast)); assay: Inhibition of Candida albicans N-myristoyltransferse
Sequence (P30418 whole entry): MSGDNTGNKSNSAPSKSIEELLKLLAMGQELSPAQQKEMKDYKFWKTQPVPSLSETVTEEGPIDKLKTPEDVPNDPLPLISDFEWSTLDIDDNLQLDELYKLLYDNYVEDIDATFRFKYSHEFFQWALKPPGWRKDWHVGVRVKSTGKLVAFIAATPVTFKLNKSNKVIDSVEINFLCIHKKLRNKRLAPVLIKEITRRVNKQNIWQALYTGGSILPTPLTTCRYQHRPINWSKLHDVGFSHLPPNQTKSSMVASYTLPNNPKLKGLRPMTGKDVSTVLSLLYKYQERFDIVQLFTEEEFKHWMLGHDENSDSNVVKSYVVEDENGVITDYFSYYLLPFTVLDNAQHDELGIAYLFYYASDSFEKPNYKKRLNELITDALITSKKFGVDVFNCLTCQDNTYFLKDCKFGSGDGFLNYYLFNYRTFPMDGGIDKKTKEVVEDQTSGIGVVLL
quantity name: IC50 (nM)

Example results:
- molecule: "O=C(NCCNCc1ccc2ccccc2c1)c1ccc2nc(NC(=O)C3CCOCC3)sc2c1"
  quantity name: "IC50"
  result unit: "nM"
  result: 890
- molecule: "O=C(Nc1ccc2nc(NC(=O)C3CCC3)sc2c1)C1CCCC(NCc2ccc3ccccc3c2)C1 (stereo unspecified)"
  quantity name: "IC50"
  result unit: "nM"
  result: 2.3
- molecule: "O=C(Nc1nc2ccc(C(=O)N3CCC(NCc4ccc5ccccc5c4)CC3)cc2s1)C1CCCCC1"
  quantity name: "IC50"
  result unit: "nM"
  result: 500
- molecule: "O=C(Nc1ccc2nc(NC(=O)C3CC3)sc2c1)C1CCCC(NCc2ccc3ccccc3c2)C1 (stereo unspecified)"
  quantity name: "IC50"
  result unit: "nM"
  result: 2.4
- molecule: "O=C(Nc1nc2ccc(C(=O)N3CCC(CNCc4ccc5ccccc5c4)CC3)cc2s1)C1CCCCC1"
  quantity name: "IC50"
  result unit: "nM"
  result: 26

(I) CCC(=O)Nc1nc2ccc(C(=O)NCCNCc3ccc4ccccc4c3)cc2s1
(II) Cc1c(COc2ccc(F)c(F)c2F)oc2cccc(OCCCNCc3cccnc3)c12
(III) O=C(NCCNCc1ccc2ccccc2c1)c1ccc2nc(NC(=O)C3CCCCC3)sc2c1
// ascending sort on recorded IC50 When ranking, write the labels in the order the request describes.
II, III, I
(II: 5.7 nM, III: 34 nM, I: 130 nM)

(1) O=C(Nc1ccc2nc(NC(=O)C3CCCC3)sc2c1)C1CCCC(NCc2ccc(-c3ccccc3)cc2)C1 (stereo unspecified)
(2) O=C(Nc1nc2ccc(C(=O)N3CCCC(NCc4ccc5ccccc5c4)C3)cc2s1)C1CCCCC1 (stereo unspecified)
(3) O=C(NCc1cccc(CNCc2ccc3ccccc3c2)c1)c1ccc2nc(NC(=O)C3CCCCC3)sc2c1
(4) O=C(Nc1ccc2nc(NC(=O)C3CCCC3)sc2c1)C1CCC(NCc2ccc3ccccc3c2)CC1 (stereo unspecified)
// ascending sort on recorded IC50 When ranking, write the labels in the order the request describes.
4, 1, 2, 3

Values were extracted from ChEMBL document CHEMBL1140618.
